Ref: patent US20230101266A1

Documented pKd across a set of binders
Target: T1, recombinant extracellular domain of human TROP2 (human, UniProt P09758 27-274)
T1 construct: extracellular domain; Commercial protein (Acrobiosystem), used as the analyte in SPR; also called Trophoblast antigen 2; GA733-1
T1 sequence (looked up): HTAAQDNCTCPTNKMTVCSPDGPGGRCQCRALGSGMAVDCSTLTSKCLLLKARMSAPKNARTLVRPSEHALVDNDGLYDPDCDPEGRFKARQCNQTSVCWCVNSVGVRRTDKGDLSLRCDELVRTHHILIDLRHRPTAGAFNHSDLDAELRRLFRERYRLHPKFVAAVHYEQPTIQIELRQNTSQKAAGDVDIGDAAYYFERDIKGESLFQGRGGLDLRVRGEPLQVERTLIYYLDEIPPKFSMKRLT
Assay: SPR, Biacore 8K, antibody captured on Protein A chip, TROP2 ECD as analyte, 25 C, 1:1 model
Field pKd (float): negative decimal logarithm of the concentration in molar.

>  <binder>
Ab0052 (antibody, human IgG1, kappa, V domains shown, Humanized IgG; also called Ab0001-huV3-VL / Ab0001-huV4-VH) VH: QVQLVQSGAEVKKPGSSVKVSCKASGYRFTDYVINWVRQAPGQGLEWMGQIYPGSDSFHYNQKFQGRATLTADKSTNTAYMELSSLRSEDTAVYYCARFFEGLAYWGQGTLVTVSS VL: DIQMTQSPSSLSASVGDRVTITCKASQGINNYLSWYQQKPGKAPKSLIYRANRLVDGVPSRFSGSGSGQDYTLTISSLQPEDFATYYCLQYDEFPLTFGGGTKVEIKR

>  <pKd>
9.51

$$$$
>  <binder>
Ab0053 (antibody, human IgG1, kappa, V domains shown, Humanized IgG; also called Ab0001-huV4-VL / Ab0001-huV4-VH) VH: QVQLVQSGAEVKKPGSSVKVSCKASGYRFTDYVINWVRQAPGQGLEWMGQIYPGSDSFHYNQKFQGRATLTADKSTNTAYMELSSLRSEDTAVYYCARFFEGLAYWGQGTLVTVSS VL: DIQMTQSPSSLSASVGDRVTITCKASQGINNYLSWYQQKPGKAPKSLIYRANRLVDGVPSRFSGSGSGTDYTLTISSLQPEDFATYYCLQYDEFPLTFGGGTKVEIKR

>  <pKd>
9.49

$$$$
>  <binder>
Ab0061 (antibody, human IgG1, kappa, V domains shown, Humanized IgG; also called Ab0001-huV5-VL / Ab0001-huV5-VH) VH: QVQLVQSGAEVKKPGSSVKVSCKASGYRFTDYVINWVRQAPGQGLEWMGQIYPGSDTFHYNQKFQGRATLTADKSTNTAYMELSSLRSEDTAVYYCARFFEGLAYWGQGTLVTVSS VL: DIQMTQSPSSLSASVGDRVTITCKASQGINNYLSWYQQKPGKAPKSLIYRANRLVDGVPSRFSGSGSGTDFTLTISSLQPEDFATYYCLQYDEFPLTFGGGTKVEIKR

>  <pKd>
9.21

$$$$

Let us move to another entry and its pKd.
Name the recorded pKd for Ab0054 (antibody, human IgG1, kappa, V domains shown, Humanized IgG; also called Ab0001-huV5-VL / Ab0001-huV4-VH) VH: QVQLVQSGAEVKKPGSSVKVSCKASGYRFTDYVINWVRQAPGQGLEWMGQIYPGSDSFHYNQKFQGRATLTADKSTNTAYMELSSLRSEDTAVYYCARFFEGLAYWGQGTLVTVSS VL: DIQMTQSPSSLSASVGDRVTITCKASQGINNYLSWYQQKPGKAPKSLIYRANRLVDGVPSRFSGSGSGTDFTLTISSLQPEDFATYYCLQYDEFPLTFGGGTKVEIKR . 9.37
